- target.or.system: EGFR T790M/L858R (NCI-H1975 cells) (Homo sapiens, UniProt P00533, L858R/T790M)
- Construct: NCI-H1975 (harboring EGFR heterozygous T790M/L858R mutations); host or cells: NCI-H1975
- Sequence (P00533 25-1210 T790M/L858R): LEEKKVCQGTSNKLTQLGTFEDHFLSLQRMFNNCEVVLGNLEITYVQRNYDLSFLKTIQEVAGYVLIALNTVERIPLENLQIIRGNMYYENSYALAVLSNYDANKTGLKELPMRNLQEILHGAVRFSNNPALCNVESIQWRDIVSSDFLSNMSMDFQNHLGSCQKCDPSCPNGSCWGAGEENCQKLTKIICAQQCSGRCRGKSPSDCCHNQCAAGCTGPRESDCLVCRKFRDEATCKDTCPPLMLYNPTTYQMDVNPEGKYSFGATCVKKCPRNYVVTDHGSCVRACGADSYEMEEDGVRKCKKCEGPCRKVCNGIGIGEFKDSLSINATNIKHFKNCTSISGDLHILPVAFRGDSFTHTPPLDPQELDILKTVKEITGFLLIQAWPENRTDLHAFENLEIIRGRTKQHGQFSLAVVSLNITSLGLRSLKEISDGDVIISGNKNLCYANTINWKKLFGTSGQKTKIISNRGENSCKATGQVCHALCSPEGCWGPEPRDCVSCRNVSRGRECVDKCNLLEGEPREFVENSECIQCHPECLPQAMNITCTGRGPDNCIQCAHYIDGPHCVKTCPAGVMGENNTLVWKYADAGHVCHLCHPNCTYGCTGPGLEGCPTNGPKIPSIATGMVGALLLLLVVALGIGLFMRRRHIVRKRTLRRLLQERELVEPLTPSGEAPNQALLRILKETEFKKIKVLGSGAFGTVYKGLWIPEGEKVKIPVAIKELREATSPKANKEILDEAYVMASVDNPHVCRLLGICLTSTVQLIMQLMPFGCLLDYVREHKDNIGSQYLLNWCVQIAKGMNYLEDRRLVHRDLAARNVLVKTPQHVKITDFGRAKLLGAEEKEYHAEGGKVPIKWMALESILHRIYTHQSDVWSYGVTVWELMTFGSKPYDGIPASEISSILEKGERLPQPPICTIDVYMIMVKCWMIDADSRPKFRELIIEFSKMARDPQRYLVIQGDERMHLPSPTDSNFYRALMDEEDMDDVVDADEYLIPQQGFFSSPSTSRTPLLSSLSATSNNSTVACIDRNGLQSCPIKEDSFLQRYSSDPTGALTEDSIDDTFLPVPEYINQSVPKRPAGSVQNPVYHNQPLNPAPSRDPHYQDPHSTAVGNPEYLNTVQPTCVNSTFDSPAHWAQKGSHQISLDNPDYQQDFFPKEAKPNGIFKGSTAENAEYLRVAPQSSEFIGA
- assay: EGFR (L858R) degradation analysis, Total EGFR (L858R) HTRF, NCI-H1975 cells
- Type: cell-based
- condition.summary: 6 hours
Field 'label' (enum: condition met / condition not met). Set to condition met when DC50 is strictly under 30 nM; else condition not met.

molecule: O=C1CC[C@H](Nc2ccc(C3CCN(CC(=O)N4CCC(n5cc(-c6cc(F)c7c(c6)C(=O)N(C(C(=O)Nc6nccs6)c6ncn8c6CCC8)C7)cn5)CC4)CC3)cc2)C(=O)N1 (stereo partly shown)
category: condition met

[Q] Does the reported DC50 of O=C1CCC(Nc2ccc(C3CCN(CC(=O)N4CCN(c5ccc(-c6cc(F)c7c(c6)C(=O)N(C(C(=O)Nc6nccs6)c6ncn8c6CCC8)C7)cc5)CC4)CC3)nc2)C(=O)N1 (stereo not shown) stay below 30 nM?
[A] condition met

[Q] Determine if O=C1CCC(Nc2ccc(C3CCN(CC(=O)N4CCC(NC(=O)c5ccc(C#Cc6cc(F)c7c(c6)C(=O)N(C(C(=O)Nc6nccs6)c6ncn8c6CCC8)C7)cn5)CC4)CC3)cc2)C(=O)N1 (racemic) shows DC50 strictly lower than 30 nM.
[A] condition met

[Q] Given O=C1CCC(Nc2ccc(C3CCN(C(=O)CCCN4CCN(c5ccc(-c6cc(F)c7c(c6)C(=O)N(C(C(=O)Nc6nccs6)c6ncn8c6CCC8)C7)cc5)CC4)CC3)cc2)C(=O)N1 (racemic) , is recorded DC50 strictly lower than 30 nM?
[A] condition met

Values compiled from patent US12486290B2.
